Values compiled from PubChem BioAssay AID1240.

Entries annotated with measured displacement
# target_or_system: Bcl-2-like protein 10 (Homo sapiens) (UniProt Q9HD36)
# Sequence (Q9HD36 whole entry, looked up): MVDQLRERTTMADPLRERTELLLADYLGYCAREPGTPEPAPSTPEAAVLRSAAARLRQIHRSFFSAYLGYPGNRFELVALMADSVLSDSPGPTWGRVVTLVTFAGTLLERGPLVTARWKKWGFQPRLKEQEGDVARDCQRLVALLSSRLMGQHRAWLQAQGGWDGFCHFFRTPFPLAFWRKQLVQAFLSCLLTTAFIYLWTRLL
# assay_comment: TR3 peptide-Bcl-B binding displacers, biochemical primary FP assay, phenotype converters (AID 1240);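 note: 0% = Bcl-B with tracer peptide and DMSO and 100% = tracer peptide lacking Bcl-B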
# condition: GST-Bcl-B / FITC-TR3 peptide fluorescence polarization; stronger effect = higher value; compound at 3.75 mg/L
Hit rate of the full screen: of about 50,000 compounds, about 800 (1.6%) showed an effect of 50% or more. This is one part of a sample in which strong results are shown more often than they occur.
experimental_readout: displacement

# test_smiles, result
rows = [
    ("COc1ccc(C(=O)/C=C/c2ccc(-c3ccc([N+](=O)[O-])cc3)o2)cc1", "133%"),
    ("COC(=O)c1cc(C(=O)Nc2ccccn2)cc([N+](=O)[O-])c1", "-1.3%"),
    ("O=C(Nc1c(C(=O)N2CCOCC2)cnn1-c1ccccc1)c1cccs1", "12.5%"),
    ("O=C(/C=C/c1ccc(-c2ccccc2)o1)c1ccc(F)cc1", "54.3%"),
    ("CCOc1ccc(Cc2c(C)nc3c(C)cccc3c2Cl)cc1", "-5.7%"),
    ("COc1ccc(C(=O)/C=C/c2ccc(/C=C/C(=O)c3ccc(OC)cc3)cc2)cc1", "19.1%"),
    ("COc1ccc(-c2ccc(/C=C/C(=O)c3ccc(Cl)cc3)o2)cc1", "-16.7%"),
    ("O=C1c2ccc(Oc3ccc([N+](=O)[O-])cc3)cc2C(=O)N1c1cccc(-c2nc3ccccc3o2)c1", "-3.8%"),
    ("COC(=O)c1cc(C(=O)Nc2cc(C)ccn2)cc([N+](=O)[O-])c1", "3.9%"),
    ("O=C(/C=C/c1ccc(-c2cccc(C(F)(F)F)c2)o1)c1ccc(F)cc1", "-28.8%"),
]
